Exercise: state measured pIC50 for each of the compounds provided.
- TARGET OR SYSTEM: Nitric oxide synthase, inducible (Homo sapiens, UniProt P35228)
- Sequence (P35228 whole entry): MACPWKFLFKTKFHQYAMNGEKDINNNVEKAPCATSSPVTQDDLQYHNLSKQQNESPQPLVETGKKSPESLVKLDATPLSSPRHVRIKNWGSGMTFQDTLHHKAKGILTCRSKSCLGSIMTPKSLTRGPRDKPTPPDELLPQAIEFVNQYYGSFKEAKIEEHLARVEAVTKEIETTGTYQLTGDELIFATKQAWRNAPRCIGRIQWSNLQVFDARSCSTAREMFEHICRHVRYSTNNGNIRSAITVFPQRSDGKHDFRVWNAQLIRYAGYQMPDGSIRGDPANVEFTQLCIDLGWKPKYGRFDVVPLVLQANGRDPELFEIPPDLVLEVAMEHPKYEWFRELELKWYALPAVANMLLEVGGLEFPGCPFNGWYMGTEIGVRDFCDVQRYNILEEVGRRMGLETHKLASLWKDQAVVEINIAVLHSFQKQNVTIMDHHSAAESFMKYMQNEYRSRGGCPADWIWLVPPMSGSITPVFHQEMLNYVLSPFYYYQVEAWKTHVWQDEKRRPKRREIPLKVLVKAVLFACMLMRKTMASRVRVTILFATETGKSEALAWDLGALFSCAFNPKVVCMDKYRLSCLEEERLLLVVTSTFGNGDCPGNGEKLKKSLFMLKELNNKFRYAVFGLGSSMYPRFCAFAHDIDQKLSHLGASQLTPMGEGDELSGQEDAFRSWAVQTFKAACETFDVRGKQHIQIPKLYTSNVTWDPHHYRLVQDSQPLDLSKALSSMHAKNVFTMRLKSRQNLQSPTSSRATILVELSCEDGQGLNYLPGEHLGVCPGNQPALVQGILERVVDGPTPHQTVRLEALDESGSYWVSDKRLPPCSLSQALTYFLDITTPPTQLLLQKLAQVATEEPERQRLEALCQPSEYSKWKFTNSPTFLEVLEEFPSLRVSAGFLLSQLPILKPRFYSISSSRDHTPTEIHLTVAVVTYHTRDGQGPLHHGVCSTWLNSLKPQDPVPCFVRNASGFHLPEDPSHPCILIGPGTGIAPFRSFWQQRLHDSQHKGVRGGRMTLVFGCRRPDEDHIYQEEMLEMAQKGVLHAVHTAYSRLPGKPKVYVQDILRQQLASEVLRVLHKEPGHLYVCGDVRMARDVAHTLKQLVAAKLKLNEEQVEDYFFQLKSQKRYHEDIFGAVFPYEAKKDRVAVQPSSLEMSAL
- PROTOCOL DESCRIPTION: Ability to inhibit conversion of [3H]L-Arg to [3H]L-citrulline catalyzed by inducible NOS (i NOS) from human DLD-1 cells
- Format: functional, cell-based
Please keep in mind that pIC50 is minus log10 of the molar concentration; only the number is needed.

Asked: Given the compound `CC(=N)NCCCC[C@H](N)C(=O)O` , what is its reported pIC50?
Given back: 6.89

Asked: Given the compound NC1=NC(C2CC2)Cc2ccccc21 (stereo not given) , what is its reported pIC50?
Given back: 5.89

Asked: Given the compound NC1=NC(c2ccco2)Cc2ccccc21 (stereo not given) , what is its reported pIC50?
Given back: 5.92

Asked: Given the compound NC1=NC(c2nccs2)Cc2ccccc21 (stereo not given) , what is its reported pIC50?
Given back: 5.38

Asked: Given the compound `NC1=NCCc2ccccc21` , what is its reported pIC50?
Given back: 4.49

Asked: Given the compound NC1=NC(c2cccs2)Cc2ccccc21 (stereo not given) , what is its reported pIC50?
Given back: 5.57

Asked: Given the compound CC1Cc2ccccc2C(N)=N1 (stereo not given) , what is its reported pIC50?
Given back: 4.74

Asked: Given the compound NC1=NC(c2ccc(F)cc2)Cc2ccccc21 (stereo not given) , what is its reported pIC50?
Given back: 5.26

Asked: Given the compound NC1=NC(c2ccc(F)cc2)Cc2c(F)cccc21 (stereo not given) , what is its reported pIC50?
Given back: 5.33

Asked: Given the compound NC1=NC(c2ccccc2F)Cc2ccccc21 (stereo not given) , what is its reported pIC50?
Given back: 4.48

Asked: Given the compound `COC(=O)[C@@H](N)CCCNC(=N)N[N+](=O)[O-]` , what is its reported pIC50?
Given back: 4.85

Asked: Given the compound `N=C(N)NN` , what is its reported pIC50?
Given back: 5.35

Asked: Given the compound C#CC1Cc2ccccc2C(N)=N1 (stereo not given) , what is its reported pIC50?
Given back: 5.57

Asked: Given the compound NC1=NC(c2ccc(F)cc2)Cc2cc(F)ccc21 (stereo not given) , what is its reported pIC50?
Given back: 5.05

Asked: Given the compound NC1=NC(c2ccccc2)Cc2cccc(F)c21 (stereo not given) , what is its reported pIC50?
Given back: 6.26

###

- TARGET OR SYSTEM: Nitric oxide synthase 1 (Rattus norvegicus)
- Sequence (P29476 whole entry): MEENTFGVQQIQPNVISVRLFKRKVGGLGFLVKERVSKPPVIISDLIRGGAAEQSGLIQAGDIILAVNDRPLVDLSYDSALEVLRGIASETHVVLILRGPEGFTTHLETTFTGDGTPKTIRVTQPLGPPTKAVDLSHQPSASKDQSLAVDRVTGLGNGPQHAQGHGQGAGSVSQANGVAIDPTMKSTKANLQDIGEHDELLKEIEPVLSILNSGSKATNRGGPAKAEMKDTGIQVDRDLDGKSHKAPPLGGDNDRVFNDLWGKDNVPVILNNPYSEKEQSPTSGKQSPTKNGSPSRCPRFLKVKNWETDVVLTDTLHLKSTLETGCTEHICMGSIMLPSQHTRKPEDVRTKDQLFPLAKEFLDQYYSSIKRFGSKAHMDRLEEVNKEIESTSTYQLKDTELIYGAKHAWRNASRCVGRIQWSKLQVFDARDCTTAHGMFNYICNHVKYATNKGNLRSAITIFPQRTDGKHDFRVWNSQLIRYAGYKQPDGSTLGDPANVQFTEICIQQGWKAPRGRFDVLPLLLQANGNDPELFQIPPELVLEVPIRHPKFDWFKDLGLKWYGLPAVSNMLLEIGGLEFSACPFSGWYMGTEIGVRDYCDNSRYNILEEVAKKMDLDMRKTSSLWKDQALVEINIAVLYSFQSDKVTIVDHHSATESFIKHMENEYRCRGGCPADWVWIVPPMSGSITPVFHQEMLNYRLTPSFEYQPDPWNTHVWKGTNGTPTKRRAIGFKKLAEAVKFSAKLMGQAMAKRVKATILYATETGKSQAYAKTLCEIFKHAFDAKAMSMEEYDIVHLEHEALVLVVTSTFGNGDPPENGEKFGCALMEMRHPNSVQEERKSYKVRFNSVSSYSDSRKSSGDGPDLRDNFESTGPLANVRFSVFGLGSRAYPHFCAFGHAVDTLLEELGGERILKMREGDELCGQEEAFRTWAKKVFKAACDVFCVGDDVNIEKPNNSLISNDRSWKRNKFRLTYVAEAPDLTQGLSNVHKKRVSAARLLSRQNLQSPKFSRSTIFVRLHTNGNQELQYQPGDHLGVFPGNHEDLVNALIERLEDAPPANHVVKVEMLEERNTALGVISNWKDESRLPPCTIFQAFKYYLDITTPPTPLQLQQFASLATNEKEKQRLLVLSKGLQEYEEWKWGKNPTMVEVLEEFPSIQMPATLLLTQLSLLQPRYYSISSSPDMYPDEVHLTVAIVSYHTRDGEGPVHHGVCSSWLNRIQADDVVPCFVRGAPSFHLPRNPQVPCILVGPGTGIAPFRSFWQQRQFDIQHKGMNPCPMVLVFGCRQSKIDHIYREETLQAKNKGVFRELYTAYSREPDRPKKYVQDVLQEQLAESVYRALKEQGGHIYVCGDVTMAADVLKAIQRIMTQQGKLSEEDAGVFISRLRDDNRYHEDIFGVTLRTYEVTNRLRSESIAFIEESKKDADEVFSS
- PROTOCOL DESCRIPTION: Inhibition of conversion of [3H]L-Arg to [3H]L-citrulline catalyzed by neuronal NOS (n NOS) from rat cerebellum
Exercise: state measured pIC50 for each of the compounds provided.
Please keep in mind that pIC50 is minus log10 of the molar concentration; only the number is needed.

Asked: Given the compound `CC1(C)Cc2ccccc2C(N)=N1` , what is its reported pIC50?
Given back: 5.00

Asked: Given the compound NC1=NC(c2cccs2)Cc2ccccc21 (centres undefined) , what is its reported pIC50?
Given back: 5.70

Asked: Given the compound NC1=NC(c2ccc(F)cc2)Cc2cccc(F)c21 (centres undefined) , what is its reported pIC50?
Given back: 4.80

Asked: Given the compound NC1=NC(c2ccc(Cl)cc2)Cc2ccccc21 (centres undefined) , what is its reported pIC50?
Given back: 4.52

Hey, just so you know, these numbers are from ChEMBL document CHEMBL1134020.
